Attribution: PubChem BioAssay (NCI)

Tested on: CCRF-CEM leukemia
Assay: NCI-60 one-dose screen, 48 h
Conditions: 10 µM unless noted
This is part of a sample that, as a whole, favours compounds with a hit. Of some 83,000 tested, about 20% had one in any assay. Active and inactive are the calls of the source. The calls were made as follows: active = growth percent below 10; inactive = the rest.
Classes used: true = active, false = inactive

# molecule, tested_target, group
data = [
    ("O=C(NC1CCCCCC1)c1ccc2c(=O)n3c(nc2c1)CCCCC3", "CCRF-CEM leukemia", "false"),
    ("O=C1C(c2c(O)[nH]c3ncccc23)=Nc2ccccc21", "CCRF-CEM leukemia", "false"),
    ("Cn1ccnc1C(=O)/C=C/c1ccc(C(=O)Nc2ccccc2F)cc1", "CCRF-CEM leukemia", "true"),
    ("C=C(C)[C@@H]1CC[C@]2(C#N)CC[C@]3(C)[C@H](CC[C@@H]4[C@@]5(C)CCCNC(C)(C)[C@@H]5CC[C@]43C)[C@@H]12", "CCRF-CEM leukemia", "false"),
    ("CCOC(=O)CC1CSC(N/N=C(/C)c2cccc(C(F)(F)F)c2)=N1 (stereo unspecified)", "CCRF-CEM leukemia", "false"),
    ("CCOC(=O)/C(=C/c1ccc([N+](=O)[O-])cc1)C(=O)c1ccccc1", "CCRF-CEM leukemia", "true"),
    ("CC(C)C(=O)Nc1ncc(C(=O)NCCN(Cc2ccccc2)C(=O)c2ccc(S(=O)(=O)Nc3ccccc3)cc2)s1", "CCRF-CEM leukemia", "false"),
    ("CCOC(=O)C1=CCC(n2cc(F)c(=O)[nH]c2=O)O1 (stereo unspecified)", "CCRF-CEM leukemia", "false"),
    ("COc1ccc(C(=O)/C=C/c2ccc(Cl)cc2)cc1S(N)(=O)=O", "CCRF-CEM leukemia", "true"),
    ("CCN(CC)c1ccc(/C=N/NC(=O)c2ccccc2Nc2ccnc(C(F)(F)F)c2)c(O)c1", "CCRF-CEM leukemia", "false"),
    ("CN(C)c1ccc(/C=C/C2=[N+](C)c3ccccc3C2(C)C)cc1", "CCRF-CEM leukemia", "false"),
    ("C=CCOC(=O)C1=C(C)N(CC)C(=O)N(CC)C1c1c(Cl)n(C)c2ccccc12 (stereo unspecified)", "CCRF-CEM leukemia", "true"),
    ("CCOC(=O)c1cnc2sc(-c3ccc(OC)cc3)nc2c1Cl", "CCRF-CEM leukemia", "false"),
    ("COc1cccc2cc(N(C)c3nc(C)nc4c3CCC4)ccc12", "CCRF-CEM leukemia", "false"),
    ("c1ccc(-c2nc(N3CCNCC3)c3oc(-c4ccccc4)nc3n2)cc1", "CCRF-CEM leukemia", "true"),
    ("O=C(O)/C=C/c1cn(-c2ccccc2)nc1-c1ccc(F)cc1", "CCRF-CEM leukemia", "false"),
    ("Cn1cc(-c2csc(-c3cn(CCO)c4ccc(F)cc34)n2)c2cccnc21", "CCRF-CEM leukemia", "false"),
    ("C#CCOc1ccc(C2=NN(C)C3N=C(Cl)c4ncn(C)c4N23)cc1OCC#C (stereo unspecified)", "CCRF-CEM leukemia", "false"),
    ("Cc1cc(N2CCOCC2)nc(N(CCCNc2ccnc3cc(Cl)ccc23)Cc2ccc3c(c2)OCO3)n1", "CCRF-CEM leukemia", "true"),
    ("Cc1ccc(NC(=O)c2ccc(Nc3ncnc4c3cnn4-c3cccc(F)c3)cc2)cc1", "CCRF-CEM leukemia", "false"),
    ("C1=C2CCCC3=Cc4ccccc4OC23Oc2ccccc21", "CCRF-CEM leukemia", "false"),
]
